Molecular target: CYP3A4 (Homo sapiens, UniProt P08684)
Sequence (P08684 whole entry): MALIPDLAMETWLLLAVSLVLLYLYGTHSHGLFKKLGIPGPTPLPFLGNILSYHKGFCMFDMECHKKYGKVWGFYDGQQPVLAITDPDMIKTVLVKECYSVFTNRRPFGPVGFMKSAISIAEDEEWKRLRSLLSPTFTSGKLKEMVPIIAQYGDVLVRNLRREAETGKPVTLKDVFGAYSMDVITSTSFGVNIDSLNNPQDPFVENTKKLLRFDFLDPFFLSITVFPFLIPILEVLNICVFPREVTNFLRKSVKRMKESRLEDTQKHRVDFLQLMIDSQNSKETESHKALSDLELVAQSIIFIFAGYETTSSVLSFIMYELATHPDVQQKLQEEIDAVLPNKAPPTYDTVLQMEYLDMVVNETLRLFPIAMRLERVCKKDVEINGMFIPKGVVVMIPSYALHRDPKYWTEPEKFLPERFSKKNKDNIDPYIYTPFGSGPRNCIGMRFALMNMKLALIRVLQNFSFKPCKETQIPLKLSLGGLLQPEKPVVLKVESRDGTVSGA
Assay: Inhibition of CYP3A4 at 3 uM using testosterone substrate
Assay type: ADME
Settings: probe testosterone
Quantity: inhibition at 3 µM (%)

Chem smiles | Tested system | Quantity | Val
O=c1cc(-c2ccc(N3CCCC3)cc2)oc2c1ccc1cc[nH]c12 | CYP3A4 (Homo sapiens, UniProt P08684) | inhibition at 3 µM | 3.4
Cc1nc2ccc3c(=O)cc(-c4ccc(N5CCCC5)cc4)oc3c2[nH]1 | CYP3A4 (Homo sapiens, UniProt P08684) | inhibition at 3 µM | 4.5

###

Test system: HepG2
Assay: Genotoxicity in human HepG2 cells assessed as micronuclei formation at 50 uM after 24 hrs by DAPI staining
Type: toxicity, cell-based
Settings: hepg2, 24 h

Chem smiles | Activity
O=c1cc(-c2ccc(N3CCCC3)cc2)oc2c1ccc1cc[nH]c12 | Non-toxic
CN(C)c1ccc(-c2cc(=O)c3ccc4nc[nH]c4c3o2)cc1 | Non-toxic
c1ccc2c(c1)cc1ccc3cccc4ccc2c1c34 | Toxic
O=c1cc(-c2ccc(N3CCCC3)cc2)oc2c1ccc1nc[nH]c12 | Non-toxic
Cc1nc2ccc3c(=O)cc(-c4ccc(N5CCCC5)cc4)oc3c2[nH]1 | Non-toxic

###

Test: AUC (infinity) in mouse at 3 mg/kg, iv by HPLC analysis
Format: ADME, organism-based
Parameters: time infinity, dose 3 mg/kg, route intravenous
Settings: plasma

Chem smiles | AUC(0-inf) (ng·h/mL)
Cc1nc2ccc3c(=O)cc(-c4ccc(N5CCCC5)cc4)oc3c2[nH]1 | 320

###

Target: CYP3A4 (Homo sapiens, UniProt P08684)
Assay: Inhibition of CYP3A4 at 30 uM using modazolam substrate
Type: ADME
Settings: probe midazolam (printed: modazolam)
Below, each of the compounds is paired with its reported inhibition at 30 µM value.

Chem smiles | inhibition at 30 µM / %
Cc1nc2ccc3c(=O)cc(-c4ccc(N5CCCC5)cc4)oc3c2[nH]1 | 40.5
O=c1cc(-c2ccc(N3CCCC3)cc2)oc2c1ccc1cc[nH]c12 | 48.1

###

Experiment: Drug recovery in human plasma at 5 uM
Assay type: ADME, cell-free
Conditions: read-out: Drug uptake

Chem smiles | remaining at 5 µM, %
O=c1cc(-c2ccc(N3CCCC3)cc2)oc2c1ccc1cc[nH]c12 | 97
Cc1nc2ccc3c(=O)cc(-c4ccc(N5CCCC5)cc4)oc3c2[nH]1 | 86.3

###

Tested on: HepG2
Experiment: Genotoxicity in human HepG2 cells assessed as induction of DNA lesion at 100 uM after 24 hrs by comet assay
Assay type: toxicity, cell-based
Details: hepg2, 24 h

Chem smiles | Tested system | Activity
O=c1cc(-c2ccc(N3CCCC3)cc2)oc2c1ccc1nc[nH]c12 | HepG2 | Non-toxic
CN(C)c1ccc(-c2cc(=O)c3ccc4nc[nH]c4c3o2)cc1 | HepG2 | Toxic
O=c1cc(-c2ccc(N3CCCC3)cc2)oc2c1ccc1cc[nH]c12 | HepG2 | Non-toxic
Cc1nc2ccc3c(=O)cc(-c4ccc(N5CCCC5)cc4)oc3c2[nH]1 | HepG2 | Non-toxic

###

Target: CYP2C9 (Homo sapiens)
Sequence (P11712 whole entry): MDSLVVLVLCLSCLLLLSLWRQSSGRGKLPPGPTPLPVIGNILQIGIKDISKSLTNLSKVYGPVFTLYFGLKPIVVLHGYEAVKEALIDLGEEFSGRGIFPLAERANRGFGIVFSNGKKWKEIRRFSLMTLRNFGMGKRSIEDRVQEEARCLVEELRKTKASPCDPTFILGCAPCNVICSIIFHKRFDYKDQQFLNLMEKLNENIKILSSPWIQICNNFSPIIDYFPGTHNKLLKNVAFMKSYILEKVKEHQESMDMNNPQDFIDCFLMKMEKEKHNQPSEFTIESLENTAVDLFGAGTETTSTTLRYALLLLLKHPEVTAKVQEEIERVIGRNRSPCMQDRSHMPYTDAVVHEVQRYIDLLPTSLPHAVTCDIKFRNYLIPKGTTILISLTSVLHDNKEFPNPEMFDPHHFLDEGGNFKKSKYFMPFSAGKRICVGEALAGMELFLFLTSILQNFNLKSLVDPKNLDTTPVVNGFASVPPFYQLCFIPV
Assay: Inhibition of CYP2C9 at 30 uM
Assay type: ADME

Chem smiles | inhibition at 30 µM
O=c1cc(-c2ccc(N3CCCC3)cc2)oc2c1ccc1cc[nH]c12 | 52.9%
Cc1nc2ccc3c(=O)cc(-c4ccc(N5CCCC5)cc4)oc3c2[nH]1 | 73.6%

###

Molecular target: CYP1A2 (Homo sapiens)
Sequence (P05177 whole entry): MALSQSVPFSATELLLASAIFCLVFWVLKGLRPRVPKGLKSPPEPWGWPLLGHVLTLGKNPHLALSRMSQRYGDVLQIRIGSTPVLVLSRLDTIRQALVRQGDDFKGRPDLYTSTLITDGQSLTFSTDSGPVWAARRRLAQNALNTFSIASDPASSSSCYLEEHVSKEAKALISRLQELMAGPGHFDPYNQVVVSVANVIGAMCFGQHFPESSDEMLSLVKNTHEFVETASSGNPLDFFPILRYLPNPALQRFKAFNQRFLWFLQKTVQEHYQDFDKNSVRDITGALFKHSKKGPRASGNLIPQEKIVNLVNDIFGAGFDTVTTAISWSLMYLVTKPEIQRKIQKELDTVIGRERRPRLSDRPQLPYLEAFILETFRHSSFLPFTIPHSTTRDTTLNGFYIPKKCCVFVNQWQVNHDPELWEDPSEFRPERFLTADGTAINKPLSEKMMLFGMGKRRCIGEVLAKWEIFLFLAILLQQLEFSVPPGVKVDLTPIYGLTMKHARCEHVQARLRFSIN
Assay: Inhibition of CYP1A2 at 30 uM
Type: ADME
Quantity: inhibition at 30 µM (%)

Chem smiles | Tested system | Quantity | Units label | Val
O=c1cc(-c2ccc(N3CCCC3)cc2)oc2c1ccc1cc[nH]c12 | CYP1A2 (Homo sapiens) | inhibition at 30 µM | % | 75.9
Cc1nc2ccc3c(=O)cc(-c4ccc(N5CCCC5)cc4)oc3c2[nH]1 | CYP1A2 (Homo sapiens) | inhibition at 30 µM | % | 66.1

###

Assay: AUC last in mouse at 10 mg/kg, po by HPLC analysis
Assay type: ADME, organism-based
Parameters: time 0 - last, dose 10 mg/kg, route oral
Details: plasma

Chem smiles | AUC(0-t), ng·h/mL
Cc1nc2ccc3c(=O)cc(-c4ccc(N5CCCC5)cc4)oc3c2[nH]1 | 19.1

###

Assay: Volume of distribution at steady state in mouse at 3 mg/kg, iv by HPLC analysis
Type: ADME, organism-based
Parameters: dose 3 mg/kg, route intravenous
Settings: in vivo, read-out: Vdss
Quantity: Vd (L/kg)

Chem smiles | Quantity | Val
Cc1nc2ccc3c(=O)cc(-c4ccc(N5CCCC5)cc4)oc3c2[nH]1 | Vd | 10

###

Biological target: BDNF/NT-3 growth factors receptor (Rattus norvegicus)
Assay: Agonist activity at TrkB receptor in E17 rat embryo primary neurons assessed as TrkB phosphorylation at tyrosine 817 at 500 nM after 15 mins by immunoblotting analysis
Format: functional
The source made the active and inactive calls. The calls are words filed in the database; no cut-off is given here.

Chem smiles | Activity
CN(C)c1ccc(-c2cc(=O)c3c(F)cc(O)c(O)c3o2)cc1 | Active
O=c1c(F)c(-c2cccc(O)c2)oc2c(O)c(O)ccc12 | Active
O=c1c(F)c(-c2ccccc2)oc2c(O)c(O)ccc12 | Active
O=c1cc(-c2cncnc2)oc2c(O)c(O)ccc12 | Active
Br.CN(C)c1ccc(-c2cc(=O)c3ccc(O)c(O)c3o2)cc1 | Active
CN(C)c1cccc(-c2cc(=O)c3ccc(O)c(O)c3o2)c1 | Active
O=c1cc(-c2ccccc2)[nH]c2c(O)c(O)ccc12 | inactive
O=c1cc(-c2ccc(F)cc2)oc2c(O)c(O)ccc12 | inactive
CN(C)c1ccc(-c2cc(=O)c3ccc4nc[nH]c4c3o2)cc1 | Active
O=c1cc(-c2ccc(F)cc2)[nH]c2c(O)c(O)ccc12 | inactive
O=c1cc(-c2ccccc2)oc2c(O)c(O)cc(F)c12 | Active

###

Test: Elimination half life in mouse at 10 mg/kg, po by HPLC analysis
Type: ADME, organism-based
Parameters: dose 10 mg/kg, route oral
Settings: in vivo, read-out: beta t1/2

Chem smiles | half-life
Cc1nc2ccc3c(=O)cc(-c4ccc(N5CCCC5)cc4)oc3c2[nH]1 | 58 min

###

Assay: Cmax in mouse at 10 mg/kg, po by HPLC analysis
Format: ADME, organism-based
Parameters: dose 10 mg/kg, route oral
Conditions: in vivo
Quantity: Cmax

Chem smiles | Val
Cc1nc2ccc3c(=O)cc(-c4ccc(N5CCCC5)cc4)oc3c2[nH]1 | 7 ng/mL

###

Test: Volume of distribution in mouse at 3 mg/kg, iv by HPLC analysis
Type: ADME, organism-based
Parameters: dose 3 mg/kg, route intravenous
Conditions: in vivo, read-out: Vz

Chem smiles | Vd
Cc1nc2ccc3c(=O)cc(-c4ccc(N5CCCC5)cc4)oc3c2[nH]1 | 23.1 L/kg

###

Assay: Metabolic stability in human liver microsomes assessed as remaining parent compound at 1 uM after 1 hr in the presence of […]
Format: ADME, Microsome
Details: read-out: Stability
Below, each of the compounds is paired with its reported remaining at 1 h, 1 µM value.

Chem smiles | remaining at 1 h, 1 µM
Cc1nc2ccc3c(=O)cc(-c4ccc(N5CCCC5)cc4)oc3c2[nH]1 | 25.4%
O=c1cc(-c2ccc(N3CCCC3)cc2)oc2c1ccc1cc[nH]c12 | 1.2%
